Catalogue of compounds with associated growth
System: MCF7 breast
Assay Comment: NCI-60 one-dose screen, 48 h (100 = growth as untreated, 0 = no growth, -100 = all killed)
Particulars: 10 µM
This is part of a sample that, as a whole, favours compounds with a hit. Of some 83,000 tested, about 20% had one in any assay. Calls of active or inactive are those of the source. Rule for the calls: active = growth percent below 10; inactive = the rest.

# count of solved cases: 3
Form field growth, entry O=C(Cc1csc2nc(-c3ccc(Cl)cc3)cn12)N/N=C/c1ccccc1O : 42.5% (inactive)

Form field growth, entry CN1CC[C@@H](c2c(O)cc(O)c3c(=O)cc(-c4ccccc4Cl)oc23)[C@@H](O)C1 : 9.53% (active)

Form field growth, entry COc1ccc(N=C2C(=Nc3ccc(OC)cc3)N(c3ccc(N(C)C)cc3)C(=S)N2c2ccc(OC)cc2)cc1 : 84.9% (inactive)

Next:
Form field growth, entry COc1cc(C(=O)/C=C/c2cc(-c3cc(OC)c(OC)c(OC)c3)n[nH]2)cc(OC)c1OC : 3.65% (active)

Form field growth, entry Cc1ccc(NC(=O)Nc2nc3ccccc3s2)cc1NC(=O)Nc1nc2ccccc2s1 : 64.6% (inactive)
